# study.target: human DPP8 (Homo sapiens, UniProt Q6V1X1)
# Construct: made in house; host or cells: Sf9 insect cells (baculovirus)
# Sequence (Q6V1X1 whole entry): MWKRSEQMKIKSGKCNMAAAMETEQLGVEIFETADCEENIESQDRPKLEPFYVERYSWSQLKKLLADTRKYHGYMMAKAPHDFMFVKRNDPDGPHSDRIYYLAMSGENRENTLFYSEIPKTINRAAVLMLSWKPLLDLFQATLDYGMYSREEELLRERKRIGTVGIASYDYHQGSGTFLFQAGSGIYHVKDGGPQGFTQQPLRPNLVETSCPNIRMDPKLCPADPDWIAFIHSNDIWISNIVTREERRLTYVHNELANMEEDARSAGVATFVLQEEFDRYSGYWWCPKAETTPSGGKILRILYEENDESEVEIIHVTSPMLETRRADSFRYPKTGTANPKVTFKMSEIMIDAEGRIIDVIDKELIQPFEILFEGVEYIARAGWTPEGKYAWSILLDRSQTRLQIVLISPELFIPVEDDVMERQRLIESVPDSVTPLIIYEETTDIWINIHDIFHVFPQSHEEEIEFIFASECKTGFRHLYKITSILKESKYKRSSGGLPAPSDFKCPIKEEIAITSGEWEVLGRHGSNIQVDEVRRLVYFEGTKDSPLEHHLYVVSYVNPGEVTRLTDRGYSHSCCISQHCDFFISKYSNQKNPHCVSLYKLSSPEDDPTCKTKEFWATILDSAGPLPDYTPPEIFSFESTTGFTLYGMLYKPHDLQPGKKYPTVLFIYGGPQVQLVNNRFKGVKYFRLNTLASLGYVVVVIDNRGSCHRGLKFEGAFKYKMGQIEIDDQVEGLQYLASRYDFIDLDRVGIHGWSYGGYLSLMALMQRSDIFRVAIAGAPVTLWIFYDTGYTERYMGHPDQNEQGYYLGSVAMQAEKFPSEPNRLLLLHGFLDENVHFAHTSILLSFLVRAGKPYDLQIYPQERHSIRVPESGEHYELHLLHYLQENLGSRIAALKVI
# assay.text: DPP8 IC50 measurement (Ala-Pro-pNA)
# Format: biochemical
# measurement.setup: read-out: DPP8 IC50; heading: DPP8 IC50
measured.metric: IC50

Q. IC50 lookup needed for N#C[C@@H]1CC(F)(F)CN1C(=O)CNC(=O)c1ccnc2ccccc12 [UAMC1110, reference compound] , thanks.
A. > 10 µM

###

# study.target: human DPP8 (Homo sapiens, UniProt Q6V1X1)
# Construct: made in house; host or cells: Sf9 insect cells (baculovirus)
# assay.text: DPP8 IC50 measurement (Ala-Pro-pNA)
# Type: biochemical
# measurement.setup: Ala-Pro-pNA 300 μM, pH 7.4; read-out: DPP8 IC50
measured.metric: IC50

Examples from the recorded data:
[[record]]
molecule = "C[N+](C)(CF)CCOc1ccc2nccc(C(=O)NCC(=O)N3CC(F)(F)C[C@H]3C#N)c2c1.Cc1ccc(S(=O)(=O)[O-])cc1 [Compound 4b, 4-methylbenzenesulfonate]"
measured_metric = "IC50"
value_measured = "> 10 µM"

[[record]]
molecule = "C[N+](C)(CCF)CCOCCOc1ccc2nccc(C(=O)NCC(=O)N3CC(F)(F)C[C@H]3C#N)c2c1 [Compound 8, 4-methylbenzenesulfonate]"
measured_metric = "IC50"
value_measured = "> 10 µM"

[[record]]
molecule = "CC(C)(C)OC(=O)N1CC[N+](C)(CCCOc2ccc3nccc(C(=O)NCC(=O)N4CC(F)(F)C[C@H]4C#N)c3c2)CC1 [Compound 11]"
measured_metric = "IC50"
value_measured = "> 1 µM"

[[record]]
molecule = "C[N+]1(CCCOc2ccc3nccc(C(=O)NCC(=O)N4CC(F)(F)C[C@H]4C#N)c3c2)CCN(C(=O)c2ccc(B(O)O)cc2)CC1.Cc1ccc(S(=O)(=O)[O-])cc1 [Compound 12, 4-methylbenzenesulfonate]"
measured_metric = "IC50"
value_measured = "> 1 µM"

[[record]]
molecule = "C[N+](C)(C)CCOCCOCCOc1ccc2nccc(C(=O)NCC(=O)N3CC(F)(F)C[C@H]3C#N)c2c1.Cc1ccc(S(=O)(=O)[O-])cc1 [Compound 7, 4-methylbenzenesulfonate]"
measured_metric = "IC50"
value_measured = "> 10 µM"


Report IC50 for every entry below.
1. C[N+]1(CCCOc2ccc3nccc(C(=O)NCC(=O)N4CC(F)(F)C[C@H]4C#N)c3c2)CCN(C(=O)c2ccc(I)cc2)CC1 [Compound 13]
2. C[N+](C)(CF)CCOCCOCCOc1ccc2nccc(C(=O)NCC(=O)N3CC(F)(F)C[C@H]3C#N)c2c1 [Compound 10]
3. C[N+]1(CCCOc2ccc3nccc(C(=O)NCC(=O)N4CC(F)(F)C[C@H]4C#N)c3c2)CCN(C(=O)c2ccc(F)cc2)CC1 [Compound 14]
4. C[N+](C)(CF)CCCOc1ccc2nccc(C(=O)NCC(=O)N3CC(F)(F)C[C@H]3C#N)c2c1.Cc1ccc(S(=O)(=O)[O-])cc1 [Compound 4a, benzenesulfonate]

A.
1. > 1 µM
2. > 10 µM
3. > 10 µM
4. > 10 µM

###

Please provide measured Selectivity index PREP for the entries that follow.
# study.target: Human recombinant PREP (Homo sapiens)
# Construct: made in house; host or cells: E. coli BL21(DE3)
# Sequence (P48147 whole entry): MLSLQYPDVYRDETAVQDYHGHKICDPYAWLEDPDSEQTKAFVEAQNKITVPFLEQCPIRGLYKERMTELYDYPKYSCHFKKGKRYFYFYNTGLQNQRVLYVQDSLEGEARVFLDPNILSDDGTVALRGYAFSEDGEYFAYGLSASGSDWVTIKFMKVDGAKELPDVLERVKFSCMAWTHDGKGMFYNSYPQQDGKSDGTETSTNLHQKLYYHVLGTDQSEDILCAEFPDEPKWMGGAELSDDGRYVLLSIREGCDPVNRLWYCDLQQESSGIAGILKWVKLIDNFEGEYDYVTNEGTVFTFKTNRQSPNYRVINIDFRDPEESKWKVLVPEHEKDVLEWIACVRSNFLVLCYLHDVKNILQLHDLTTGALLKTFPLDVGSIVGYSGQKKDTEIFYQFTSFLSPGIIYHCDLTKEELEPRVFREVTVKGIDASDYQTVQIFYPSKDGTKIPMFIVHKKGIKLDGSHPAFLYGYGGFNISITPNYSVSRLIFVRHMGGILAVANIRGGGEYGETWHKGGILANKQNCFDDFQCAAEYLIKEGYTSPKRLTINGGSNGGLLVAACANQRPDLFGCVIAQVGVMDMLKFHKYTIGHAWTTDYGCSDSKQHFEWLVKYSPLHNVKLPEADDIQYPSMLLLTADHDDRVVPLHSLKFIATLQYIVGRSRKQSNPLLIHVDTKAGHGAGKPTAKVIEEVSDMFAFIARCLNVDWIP
# assay.text: PREP IC50 measurement (N-succinyl-Gly-Pro-AMC)
# Assay type: biochemical
# measurement.setup: IC50(PREP)/IC50(FAP)

Examples from the recorded data:
[[record]]
molecule = "CC(C)(C)OC(=O)N1CC[N+](C)(CCCOc2ccc3nccc(C(=O)NCC(=O)N4CC(F)(F)C[C@H]4C#N)c3c2)CC1 [Compound 11]"
study_target = "Human recombinant PREP (Homo sapiens)"
measured_metric = "Selectivity index PREP"
value_measured = ">22000"

[[record]]
molecule = "C[N+](C)(CCF)CCOCCOc1ccc2nccc(C(=O)NCC(=O)N3CC(F)(F)C[C@H]3C#N)c2c1 [Compound 8, 4-methylbenzenesulfonate]"
study_target = "Human recombinant PREP (Homo sapiens)"
measured_metric = "Selectivity index PREP"
value_measured = ">1300"

[[record]]
molecule = "C[N+]1(CCCOc2ccc3nccc(C(=O)NCC(=O)N4CC(F)(F)C[C@H]4C#N)c3c2)CCN(C(=O)c2ccc(F)cc2)CC1 [Compound 14]"
study_target = "Human recombinant PREP (Homo sapiens)"
measured_metric = "Selectivity index PREP"
value_measured = ">10000"

[[record]]
molecule = "C[N+]1(CCCOc2ccc3nccc(C(=O)NCC(=O)N4CC(F)(F)C[C@H]4C#N)c3c2)CCN(C(=O)c2ccc(I)cc2)CC1 [Compound 13]"
study_target = "Human recombinant PREP (Homo sapiens)"
measured_metric = "Selectivity index PREP"
value_measured = ">22000"

[[record]]
molecule = "C[N+](C)(C)CCOCCOCCOc1ccc2nccc(C(=O)NCC(=O)N3CC(F)(F)C[C@H]3C#N)c2c1.Cc1ccc(S(=O)(=O)[O-])cc1 [Compound 7]"
study_target = "Human recombinant PREP (Homo sapiens)"
measured_metric = "Selectivity index PREP"
value_measured = ">36000"


Q. Selectivity index PREP lookup needed for C[N+](C)(CF)CCOCCOc1ccc2nccc(C(=O)NCC(=O)N3CC(F)(F)C[C@H]3C#N)c2c1.Cc1ccc(S(=O)(=O)[O-])cc1 [Compound 9] , thanks.
A. >10000

###

# study.target: human DPP8 (Homo sapiens, UniProt Q6V1X1)
# Construct: made in house; host or cells: Sf9 insect cells (baculovirus)
# assay.text: DPP8 IC50 measurement (Ala-Pro-pNA)
# Type: biochemical
# measurement.setup: IC50(DPP8)/IC50(FAP)
Please provide measured Selectivity index DPP8 for the entries that follow.

Examples from the recorded data:
[[record]]
smiles_input = "C[N+]1(CCCOc2ccc3nccc(C(=O)NCC(=O)N4CC(F)(F)C[C@H]4C#N)c3c2)CCN(C(=O)c2ccc(F)cc2)CC1"
measured_metric = "Selectivity index DPP8"
value_measured = ">10000"

[[record]]
smiles_input = "C[N+]1(CCCOc2ccc3nccc(C(=O)NCC(=O)N4CC(F)(F)C[C@H]4C#N)c3c2)CCN(C(=O)c2ccc(I)cc2)CC1"
measured_metric = "Selectivity index DPP8"
value_measured = ">2200"

[[record]]
smiles_input = "C[N+](C)(C)CCOCCOCCOc1ccc2nccc(C(=O)NCC(=O)N3CC(F)(F)C[C@H]3C#N)c2c1.Cc1ccc(S(=O)(=O)[O-])cc1"
measured_metric = "Selectivity index DPP8"
value_measured = ">36000"


Now take the following molecule into account.
Q. Selectivity index DPP8 lookup needed for C[N+](C)(CF)CCOCCOCCOc1ccc2nccc(C(=O)NCC(=O)N3CC(F)(F)C[C@H]3C#N)c2c1 , thanks.
A. >21000

###

Please provide measured Selectivity index DPP8 for the entries that follow.
# study.target: human DPP8 (Homo sapiens)
# Construct: made in house; host or cells: Sf9 insect cells (baculovirus)
# assay.text: DPP8 IC50 measurement (Ala-Pro-pNA)
# Assay type: biochemical
# measurement.setup: IC50(DPP8)/IC50(FAP)

Examples from the recorded data:
[[record]]
compound = "C[N+](C)(CF)CCOc1ccc2nccc(C(=O)NCC(=O)N3CC(F)(F)C[C@H]3C#N)c2c1.Cc1ccc(S(=O)(=O)[O-])cc1"
measured_metric = "Selectivity index DPP8"
value_measured = ">4800"

[[record]]
compound = "CC(C)(C)OC(=O)N1CC[N+](C)(CCCOc2ccc3nccc(C(=O)NCC(=O)N4CC(F)(F)C[C@H]4C#N)c3c2)CC1"
measured_metric = "Selectivity index DPP8"
value_measured = ">2200"

[[record]]
compound = "C[N+](C)(CCF)CCOCCOc1ccc2nccc(C(=O)NCC(=O)N3CC(F)(F)C[C@H]3C#N)c2c1 [Compound 8, 4-methylbenzenesulfonate]"
measured_metric = "Selectivity index DPP8"
value_measured = ">1300"

[[record]]
compound = "C[N+]1(CCCOc2ccc3nccc(C(=O)NCC(=O)N4CC(F)(F)C[C@H]4C#N)c3c2)CCN(C(=O)c2ccc(B(O)O)cc2)CC1.Cc1ccc(S(=O)(=O)[O-])cc1"
measured_metric = "Selectivity index DPP8"
value_measured = ">1700"

[[record]]
compound = "C[N+](C)(CF)CCOCCOc1ccc2nccc(C(=O)NCC(=O)N3CC(F)(F)C[C@H]3C#N)c2c1.Cc1ccc(S(=O)(=O)[O-])cc1"
measured_metric = "Selectivity index DPP8"
value_measured = ">20000"


Q. Selectivity index DPP8 lookup needed for C[N+](C)(CF)CCCOc1ccc2nccc(C(=O)NCC(=O)N3CC(F)(F)C[C@H]3C#N)c2c1.Cc1ccc(S(=O)(=O)[O-])cc1 , thanks.
A. >31000

###

# study.target: DPP4 (Homo sapiens, UniProt P27487)
# Construct: DPP4 was purified from human seminal plasma; from tissue; host or cells: human seminal plasma
# Sequence (P27487 whole entry): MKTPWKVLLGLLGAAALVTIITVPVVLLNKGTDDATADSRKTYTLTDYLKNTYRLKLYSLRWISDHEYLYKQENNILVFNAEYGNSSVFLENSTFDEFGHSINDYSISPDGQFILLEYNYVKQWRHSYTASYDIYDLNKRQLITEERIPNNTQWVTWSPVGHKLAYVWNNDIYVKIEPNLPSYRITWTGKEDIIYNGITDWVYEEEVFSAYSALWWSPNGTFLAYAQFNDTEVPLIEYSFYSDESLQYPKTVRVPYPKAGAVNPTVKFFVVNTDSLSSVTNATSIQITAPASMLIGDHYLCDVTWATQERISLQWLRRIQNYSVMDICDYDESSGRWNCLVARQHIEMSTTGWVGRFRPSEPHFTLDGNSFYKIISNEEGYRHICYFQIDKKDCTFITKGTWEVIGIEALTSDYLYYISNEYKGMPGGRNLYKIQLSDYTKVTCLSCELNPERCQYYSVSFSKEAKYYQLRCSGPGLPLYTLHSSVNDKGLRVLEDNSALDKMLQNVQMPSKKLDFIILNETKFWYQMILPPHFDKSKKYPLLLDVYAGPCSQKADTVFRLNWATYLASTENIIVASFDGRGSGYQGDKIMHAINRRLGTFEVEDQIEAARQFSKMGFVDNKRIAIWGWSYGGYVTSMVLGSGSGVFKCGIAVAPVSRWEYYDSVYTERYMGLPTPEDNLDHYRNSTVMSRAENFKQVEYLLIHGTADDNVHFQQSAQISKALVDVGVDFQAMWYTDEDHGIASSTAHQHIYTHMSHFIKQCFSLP
# assay.text: DPP4 IC50 measurement (Ala-Pro-pNA)
# Format: biochemical
# measurement.setup: IC50(DPP4)/IC50(FAP)
measured.metric: Selectivity index DPP4

Examples from the recorded data:
[[record]]
molecule = "C[N+](C)(CF)CCCOc1ccc2nccc(C(=O)NCC(=O)N3CC(F)(F)C[C@H]3C#N)c2c1.Cc1ccc(S(=O)(=O)[O-])cc1"
value_measured = ">31000"

[[record]]
molecule = "C[N+](C)(CF)CCOCCOCCOc1ccc2nccc(C(=O)NCC(=O)N3CC(F)(F)C[C@H]3C#N)c2c1"
value_measured = ">2100"

[[record]]
molecule = "C[N+]1(CCCOc2ccc3nccc(C(=O)NCC(=O)N4CC(F)(F)C[C@H]4C#N)c3c2)CCN(C(=O)c2ccc(I)cc2)CC1"
value_measured = ">22000"


Report Selectivity index DPP4 for every entry below.
1. C[N+]1(CCCOc2ccc3nccc(C(=O)NCC(=O)N4CC(F)(F)C[C@H]4C#N)c3c2)CCN(C(=O)c2ccc(F)cc2)CC1
2. C[N+](C)(CCF)CCOCCOc1ccc2nccc(C(=O)NCC(=O)N3CC(F)(F)C[C@H]3C#N)c2c1 [Compound 8, 4-methylbenzenesulfonate]

A.
[">10000", ">1300"]

Report Selectivity index DPP4 for every entry below.
1. C[N+]1(CCCOc2ccc3nccc(C(=O)NCC(=O)N4CC(F)(F)C[C@H]4C#N)c3c2)CCN(C(=O)c2ccc(B(O)O)cc2)CC1.Cc1ccc(S(=O)(=O)[O-])cc1
2. CC(C)(C)OC(=O)N1CC[N+](C)(CCCOc2ccc3nccc(C(=O)NCC(=O)N4CC(F)(F)C[C@H]4C#N)c3c2)CC1

A.
1: >17000; 2: >22000
